- EXPERIMENTAL_PROTOCOL: A549 cell viability effects, profiling panel, calcein-AM fluorescence, 48 h, basal (AID 1162); further: test concentration not given here
- CONDITION_INFO: higher = more signal
z-score overview

// solved cases for z-score follow
INSERT INTO results (compound, assay_value) VALUES
  ('CC(=CC1CCCCC1)[C@@H](NC(=O)c1ccc(C(F)(F)F)cc1)c1ccc(-c2ccccc2)cc1', -0.165),
  ('O=C1C[C@@](C(=O)NC2CC2)(c2ccc([N+](=O)[O-])cc2)[C@@H](c2ccc(CO)cc2)N1CC12CC3CC(CC(C3)C1)C2', -1.14),
  ('C=C(CCCC)C(=O)CC[C@H](OC(=O)c1cccnc1)c1cccc(OCCO)c1', 0.952),
  ('CC1=C2[C@@H](CCc3ccccc3)OB(O)C[C@@H]2n2c(=O)n(-c3ccccc3)c(=O)n2C1', 0.328),
  ('O=C1O[C@H](c2ccccc2)[C@H](c2ccccc2)N2[C@H]1[C@@H](C(=O)N1CCN(c3ncccn3)CC1)[C@]1(C(=O)Nc3ccccc31)[C@H]2c1ccc(OCCO)cc1', 0.404),
  ('O=C1O[C@H](c2ccccc2)[C@H](c2ccccc2)N2[C@H]1[C@@H](C(=O)Nc1nc3ccccc3s1)[C@]1(C(=O)Nc3ccccc31)[C@H]2c1ccc(O)cc1', -0.167),
  ('C=CCN1C(=O)[C@]2(O[C@H](CCO)[C@@H]([Si](C)(C)c3ccc(OC)cc3)[C@@H]2C)c2cc(NC(=O)[C@H](C)O)ccc21', -1.18),
  ('COCC1=C2[C@@H](CCc3ccccc3)OB(O)C[C@@H]2[C@@H]2C(=O)N(Cc3ccccc3)C(=O)[C@@H]2C1', 0.0476),
  ('O=C1N(CCS(=O)(=O)c2ccccc2)Cc2ccccc2C[C@]12N=C(c1ccc(OCCCO)cc1)O[C@@H]2c1ccccc1', 1.82),
  ('COCCOC(=O)N1C(=O)[C@@]2(c3cc(C#CC4=CCCCC4)ccc31)[C@H](C(=O)N1CCc3cc(OC)c(OC)cc3C1)[C@H]1C(=O)O[C@H](c3ccccc3)[C@H](c3ccccc3)N1[C@@H]2c1ccccc1OCCO', 0.145);

Shifting focus to the compound that follows.
Lab book: z-score of O=C1C2C=CC(C(O)c3cccs3)N(Nc3ccccc3F)C2C(=O)N1c1ccccc1 (centres undefined) noted as -0.543
